Target: EPHB2 (UniProt P29323)
Sequence (P29323 whole entry, looked up): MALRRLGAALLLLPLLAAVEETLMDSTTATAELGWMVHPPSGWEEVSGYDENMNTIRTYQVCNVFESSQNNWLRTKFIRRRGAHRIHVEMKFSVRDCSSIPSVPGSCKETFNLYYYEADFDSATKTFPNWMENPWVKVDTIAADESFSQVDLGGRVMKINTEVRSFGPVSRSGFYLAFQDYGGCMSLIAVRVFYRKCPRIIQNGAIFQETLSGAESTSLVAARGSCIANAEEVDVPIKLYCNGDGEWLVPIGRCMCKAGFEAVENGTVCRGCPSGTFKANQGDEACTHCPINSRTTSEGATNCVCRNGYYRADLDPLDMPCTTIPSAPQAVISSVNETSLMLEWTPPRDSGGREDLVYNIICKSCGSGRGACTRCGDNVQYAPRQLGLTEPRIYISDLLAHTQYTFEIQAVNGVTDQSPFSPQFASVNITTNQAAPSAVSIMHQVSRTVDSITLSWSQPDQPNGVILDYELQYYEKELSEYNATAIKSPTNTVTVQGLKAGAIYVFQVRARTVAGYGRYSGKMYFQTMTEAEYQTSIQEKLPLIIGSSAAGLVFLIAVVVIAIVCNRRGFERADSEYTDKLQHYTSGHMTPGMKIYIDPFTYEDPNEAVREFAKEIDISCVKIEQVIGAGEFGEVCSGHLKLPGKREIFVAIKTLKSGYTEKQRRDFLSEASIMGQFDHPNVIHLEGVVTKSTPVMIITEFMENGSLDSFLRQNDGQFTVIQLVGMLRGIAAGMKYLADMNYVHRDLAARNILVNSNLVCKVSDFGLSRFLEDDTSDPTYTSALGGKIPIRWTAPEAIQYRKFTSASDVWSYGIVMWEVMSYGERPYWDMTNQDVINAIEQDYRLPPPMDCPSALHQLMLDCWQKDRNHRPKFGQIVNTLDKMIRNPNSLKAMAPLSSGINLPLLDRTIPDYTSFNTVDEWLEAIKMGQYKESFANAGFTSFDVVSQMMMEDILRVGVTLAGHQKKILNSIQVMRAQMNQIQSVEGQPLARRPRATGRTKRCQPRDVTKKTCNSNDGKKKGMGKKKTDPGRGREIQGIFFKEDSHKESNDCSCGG
Experiment: phosphorylation enrichment, bacterial display (enrichment ratio); higher = better substrate or ligand; peptides without Tyr show the background;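 further: 11-residue human phosphosite peptides and single-mutation variants displayed on the E. coli surface, counted by deep sequencing, each peptide's frequency after selection divided by its frequency in the unselected input library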;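 further: frequency after pTyr selection over input frequency; kinase dosed for 20-30% of maximal phosphorylation in three min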
QUANTITY_KIND: phosphorylation enrichment
Reply with the value as a number alone.

Solved cases (4 shown):
1) HLMLQYDAVVN [SLC25A32_Y152_R147H] : 1.51
2) SVIVPYEPPEV [TP53_Y220_V217I] : 0.618
3) AKKKMYSRKTK [AGXT_Y231] : 0.385
4) QLHEHYKIHKE [NSMAF_Y626] : 0.597

Exercise: Return value of phosphorylation enrichment for input RTLSEYARRHV [RERE_Y1259_P1262R] , no commentary.
Solution: 0.373

Exercise: Return value of phosphorylation enrichment for input EALDFCGEVRT [PTEN_Y155_Y155C] , no commentary.
Solution: 0.691

Exercise: Return value of phosphorylation enrichment for input KMATAYIRSMS [BCO1_Y264_R267S] , no commentary.
Solution: 0.374

Exercise: Return value of phosphorylation enrichment for input QLGLQYSQGLV [EIF2B4_Y214_R209Q] , no commentary.
Solution: 0.479

Exercise: Return value of phosphorylation enrichment for input GQLIVYAPPEW [CNTN6_Y315_F314V] , no commentary.
Solution: 1.66
